pKd: −log10 of the molar value.
Below are molecules with their pKd as measured on UniProt:P22455.
Sequence (P22455 22-802): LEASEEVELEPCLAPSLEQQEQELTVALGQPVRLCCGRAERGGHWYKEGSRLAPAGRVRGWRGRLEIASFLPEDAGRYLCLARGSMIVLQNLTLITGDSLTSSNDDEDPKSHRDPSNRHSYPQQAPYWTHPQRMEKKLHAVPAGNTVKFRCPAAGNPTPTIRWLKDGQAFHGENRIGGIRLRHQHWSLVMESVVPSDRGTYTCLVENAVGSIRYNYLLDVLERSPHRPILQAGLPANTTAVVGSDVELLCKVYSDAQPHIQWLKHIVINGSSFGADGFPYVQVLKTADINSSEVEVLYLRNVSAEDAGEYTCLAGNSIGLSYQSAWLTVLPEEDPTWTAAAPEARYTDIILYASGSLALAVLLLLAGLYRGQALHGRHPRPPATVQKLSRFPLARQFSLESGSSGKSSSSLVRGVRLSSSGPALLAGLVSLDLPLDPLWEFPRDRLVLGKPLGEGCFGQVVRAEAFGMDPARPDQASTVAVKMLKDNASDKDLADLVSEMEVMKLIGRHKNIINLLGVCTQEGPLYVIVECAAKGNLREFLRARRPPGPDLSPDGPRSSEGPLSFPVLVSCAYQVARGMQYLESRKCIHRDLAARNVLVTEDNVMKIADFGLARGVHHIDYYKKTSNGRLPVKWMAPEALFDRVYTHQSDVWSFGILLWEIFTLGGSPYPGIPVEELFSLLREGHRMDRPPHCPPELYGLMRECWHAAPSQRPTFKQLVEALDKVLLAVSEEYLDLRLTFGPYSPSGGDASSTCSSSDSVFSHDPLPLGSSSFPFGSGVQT
Assay readout: pKd

In [3]: df
Out[3]:
                                   molecule             tgt  reported_measurement
0  Cc1cnc(Nc2ccc(N3CCS(=N)(=O)CC3)cc2)nc1-c1c[nH]c2ccccc12  UniProt:P22455                  7.00
1  C=CC(=O)Nc1ccc2c(c1)c(C)cn2-c1nc(Nc2ccc(N=S(C)(C)=O)cc2)ncc1Cl  UniProt:P22455                  7.00
2  Cc1cnc(Nc2ccc(N=S(C)(C)=O)cc2)nc1-c1c[nH]c2cc(F)ccc12  UniProt:P22455                  6.68
3  C=CC(=O)Nc1cc(N=S(C)(C)=O)ccc1Nc1ncc(C)c(-c2c[nH]c3ccccc23)n1  UniProt:P22455                  6.92
4  Cn1cc(-c2nc(Nc3ccc(S(=N)(=O)C4CC4)cc3)ncc2Cl)c2ccccc21 (centres unmarked)  UniProt:P22455                  5.52
5  COc1cc(N2CCS(=N)(=O)CC2)ccc1Nc1ncc(C)c(-n2ccc3ccccc32)n1  UniProt:P22455                  5.25
6  COc1cc(S(C)(=N)=O)ccc1Nc1ncc(Cl)c(-n2ccc3ccccc32)n1 (centres unmarked)  UniProt:P22455                  5.20
7  C=CC(=O)Nc1ccc2c(c1)c(C)cn2-c1nc(Nc2ccc(N=S(C)(C)=O)c(F)c2)ncc1C  UniProt:P22455                  7.41
